Catalogue of inhibition readings, one per entry.
Assay: inhibitors of the yeast RAM network, pilot screen, dse1pr::URA3 reporter, 5-FOA selection (AID 869);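 also: 0% = DMSO wells with no growth and 100% = 10 µM 1-NA-PP1 with full growth; RAM network block rescues cells from 5-FOA so hits raise OD615 growth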
Conditions: S. cerevisiae dse1pr::URA3 5-FOA growth, OD615, 2 d; at 10 µM; stronger effect = higher value; strain carries analog-sensitive mutant Cbk1 kinase
The answer is to be given in %; state only the numeric part.

molecule	readout unit	inhibition
CCOc1ccc(C(C)NC(=O)CCC(=O)O)cc1 (stereo not drawn)	%	1.27

(Q) Reported inhibition for Cc1cc(Nc2ccc(F)cc2C)n2nc(C)nc2n1 : what is it?
(A) 2.01

(Q) Reported inhibition for COc1ccc(C(=O)CCC(=O)N2CCN(c3ccc(N4CCOCC4)nn3)CC2)cc1 : what is it?
(A) 1.65

(Q) Reported inhibition for CN(C)c1nc(N)nc(N(c2ccccc2)c2ccccc2)n1 : what is it?
(A) -0.635

(Q) Reported inhibition for O=C(CCn1c(=O)oc2ccccc21)N1CCN(c2ccc(F)cc2)CC1 : what is it?
(A) 1.09

(Q) Reported inhibition for CCN1CCN(C(CNS(=O)(=O)c2ccc(OC)cc2)c2cccnc2)CC1 (stereo not drawn) : what is it?
(A) 3.57

(Q) Reported inhibition for N#CCCCSc1nnc(-c2ccc(Cl)cc2)n1-c1ccccc1 : what is it?
(A) 1.34

(Q) Reported inhibition for CCN1CCN(c2ncnc3c2sc(=S)n3-c2ccccc2)CC1 : what is it?
(A) 1.73

(Q) Reported inhibition for CCCCS(=O)CC(CS(=O)CCCC)OC(=O)c1ccccc1 (stereo not drawn) : what is it?
(A) 0.405

(Q) Reported inhibition for Cc1ccc(S(=O)(=O)NCC(=O)N2CCC(C)CC2)cc1 : what is it?
(A) 0.475

(Q) Reported inhibition for CC(C)Cc1nnc(NC(=O)CCN2C(=O)c3ccccc3C2=O)s1 : what is it?
(A) 1.21

(Q) Reported inhibition for Cn1c(=O)c2c(nc(CN3CCN(Cc4ccccc4)CC3)n2Cc2ccccc2)n(C)c1=O : what is it?
(A) 2.02

(Q) Reported inhibition for CC(=O)N1CC2(C)CN(C(C)=O)CC(C)(C1)C2=O : what is it?
(A) 1.9

* * *

Catalogue of growth inhibition readings, one per entry.
Experiment: Restrictive medium S. cerevisiae growth inhibition, OD615, pilot screen of yeast lifespan reduction project, restrictive growth control (AID 706);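 also: modified DeaD lifespan yeast strain shifted to restrictive glucose medium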
Details: OD615, 48 h, at 10 µM, stronger effect = higher value
The answer is to be given in %; state only the numeric part.

Example entries begin here.
compound	assay endpoint	readout unit	reported
Brc1cnc(N2CCCC2)nc1N1CCCCC1	growth inhibition	%	2.11
COc1ccc(-c2nc3cnccn3c2Nc2ccc3c(c2)OCO3)cc1	growth inhibition	%	3.96

(Q) Reported growth inhibition for CCOC(=O)N1CCC(NC(=O)c2cc3c(-c4ccc(Cl)cc4)nn(C)c3s2)CC1 : what is it?
(A) -2.64

(Q) Reported growth inhibition for COc1ccc(Br)cc1S(=O)(=O)N(CC(=O)N1CCOCC1)c1ccccc1 : what is it?
(A) -7.74

* * *

Assay: inhibitors of the yeast RAM network, pilot screen, dse1pr::URA3 reporter, 5-FOA selection (AID 869);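 also: 0% = DMSO wells with no growth and 100% = 10 µM 1-NA-PP1 with full growth; RAM network block rescues cells from 5-FOA so hits raise OD615 growth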
Conditions: S. cerevisiae dse1pr::URA3 5-FOA growth, OD615, 2 d; at 10 µM; stronger effect = higher value; strain carries analog-sensitive mutant Cbk1 kinase
Catalogue of inhibition readings, one per entry.
The answer is to be given in %; state only the numeric part.

Example entries begin here.
molecule	readout unit	inhibition
O=C(Nc1ccccc1C(=O)NCc1ccco1)c1ccccc1	%	1.55
CS(=O)(=O)Nc1cccc2cccnc12	%	2.3
CCCC(=O)N1CCN(C2=NS(=O)(=O)c3ccccc32)CC1	%	-0.175

Would you kindly look at the next entry?
(Q) Reported inhibition for COc1ccc(Cl)cc1N1C(=O)C2CCCN2C1c1ccccc1F (stereo unspecified) : what is it?
(A) 1.41
